Ref: patent US9012483B2

Test: Pharmacokinetics of histidine in plasma after oral administration
Format: in vivo, CD(SD)IGS BR rat
Settings: male, CD(SD)IGS BR, rat plasma, Histidine 500 mg/kg
Method: Aliquots of L-Histidine dihydrochloride powder, accurately weighted, were transferred into 5 and 10 mL volumetric flasks. MilliQ-water was used to dissolve the powder. Standard solution was prepared to obtain CAL samples and CQ samples. The range of the stock standard solution was from 3.46 to 343 μg/mL. […] Plasma concentrations of Histidine as a function of time after injection C(t), were analyzed by non-parametric methods using the computer program WIN-NONLIN 4.0.1. […]

| sample-smiles | measure-unit | Tmax |
| --- | --- | --- |
| N[C@@H](Cc1c[nH]cn1)C(=O)O | h | 1 |

====

Assay: Pharmacokinetics of histidine in plasma after oral administration
Type: in vivo, CD(SD)IGS BR rat
Conditions: male, CD(SD)IGS BR, rat plasma, Histidine 1000 mg/kg (4.38 mmol/kg)

| sample-smiles | Cmax (ng/mL) |
| --- | --- |
| N[C@@H](Cc1c[nH]cn1)C(=O)O | 36000 |

====

Experiment: Pharmacokinetics of histidine in plasma after oral administration
Format: in vivo, CD(SD)IGS BR rat
Details: male, CD(SD)IGS BR, rat plasma, Histidine 500 mg/kg (2.192 mmol/kg)
result-type: Cmax

| sample-smiles | recorded-result |
| --- | --- |
| N[C@@H](Cc1c[nH]cn1)C(=O)O | 20900 ng/mL |
